- target-under-test: T1, cynomolgus monkey CD19 on peripheral blood B cells (cynomolgus monkey (Macaca fascicularis), UniProt A0A2K5W8L9 20-557)
- T1 construct: whole, on cells; also called cynomolgus monkey B cells
- T1 sequence: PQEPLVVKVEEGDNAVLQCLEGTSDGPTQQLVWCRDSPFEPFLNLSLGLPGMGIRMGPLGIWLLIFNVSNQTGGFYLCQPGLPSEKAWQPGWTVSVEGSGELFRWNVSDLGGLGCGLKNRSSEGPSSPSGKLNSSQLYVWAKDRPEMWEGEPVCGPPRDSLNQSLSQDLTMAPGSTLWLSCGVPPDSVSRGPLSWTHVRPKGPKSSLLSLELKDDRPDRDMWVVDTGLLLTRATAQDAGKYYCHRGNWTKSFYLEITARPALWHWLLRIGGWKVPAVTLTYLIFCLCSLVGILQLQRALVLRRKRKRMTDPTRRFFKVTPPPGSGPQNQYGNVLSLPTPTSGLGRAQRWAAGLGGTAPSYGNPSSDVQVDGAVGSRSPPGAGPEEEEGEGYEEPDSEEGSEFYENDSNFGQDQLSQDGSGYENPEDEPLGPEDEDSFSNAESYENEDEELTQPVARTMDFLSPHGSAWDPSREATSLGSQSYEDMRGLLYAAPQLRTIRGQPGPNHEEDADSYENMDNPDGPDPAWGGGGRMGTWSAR
- assay-info: FACS, cynomolgus PBMC, CD20+ B cells
Listed here are binders together with their documented Proportion of chimeric antibody positive cells to B cells (%) at 100 nM.
Field: numeric (%). Do not append units.

Reported Proportion of chimeric antibody positive cells to B cells (%) at 100 nM for F5.3.6 (antibody, human IgG1, V domains shown, human-murine chimeric antibody, human IgG1) VH: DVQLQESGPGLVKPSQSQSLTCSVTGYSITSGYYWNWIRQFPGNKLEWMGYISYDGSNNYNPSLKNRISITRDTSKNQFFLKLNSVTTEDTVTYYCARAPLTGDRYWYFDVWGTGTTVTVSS VL: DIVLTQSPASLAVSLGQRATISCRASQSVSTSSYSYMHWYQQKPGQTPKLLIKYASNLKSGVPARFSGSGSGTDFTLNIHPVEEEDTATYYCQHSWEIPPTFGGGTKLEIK : what is it? 12

Also need F4.276.12 (antibody, human IgG1, V domains shown, human-murine chimeric antibody, human IgG1) VH: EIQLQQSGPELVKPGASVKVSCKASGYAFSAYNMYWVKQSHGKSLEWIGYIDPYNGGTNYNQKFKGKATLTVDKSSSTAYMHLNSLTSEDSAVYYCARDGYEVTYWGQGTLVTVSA VL: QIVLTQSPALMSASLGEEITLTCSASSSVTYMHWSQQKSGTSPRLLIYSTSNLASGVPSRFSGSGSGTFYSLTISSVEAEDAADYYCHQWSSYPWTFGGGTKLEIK , thanks. 2

Further, for F6.12.12 (antibody, human IgG1, V domains shown, human-murine chimeric antibody, human IgG1) VH: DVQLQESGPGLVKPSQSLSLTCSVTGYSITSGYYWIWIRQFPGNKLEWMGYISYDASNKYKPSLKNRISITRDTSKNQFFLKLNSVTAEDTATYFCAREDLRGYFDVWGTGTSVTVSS VL: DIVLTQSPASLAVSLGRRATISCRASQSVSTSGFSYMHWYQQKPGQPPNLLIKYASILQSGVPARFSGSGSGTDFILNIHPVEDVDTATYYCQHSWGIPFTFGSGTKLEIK ? 97
